# GI50 per entry for HOP-92 NSCLC

Some entries whose results are on file:
SAMPLE SMILES: O=[N+]([O-])c1ccc(N/N=C/c2c(O)ccc3ccccc23)nc1
GI50: 7940 nM
--
SAMPLE SMILES: CCOC(=O)c1c(Br)c(-c2ccc(Br)cc2)c(Br)n1C
GI50: 14300 nM
--
SAMPLE SMILES: CC(C)c1ccc(C(=O)Nc2sc3c(c2C#N)CCC(=O)C3)cc1
GI50: 607 nM

[Q] What does the record list as GI50 for `CC1=C[C@H]2c3c(c(O)c(O)c4oc5ccccc5c(=O)c34)[C@H](c3cc(O)c(O)c4oc5ccccc5c(=O)c34)[C@H]2C(C)(C)C1` ?
[A] 1390 nM

[Q] Ok, now `COc1cc2c3c(n(CCCNCCN)c(=O)c2cc1OC)-c1cc2c(cc1C3=O)OCO2`
[A] 2310 nM

[Q] Ok, now `COc1cc(/C=C\[N+](=O)[O-])ccc1OCc1ccccc1`
[A] 12500 nM

[Q] Ok, now `CCOC(=O)C(Cc1c[nH]c2ccc(N(CCCl)CCCl)cc12)(NC(C)=O)C(=O)OCC`
[A] 14100 nM

[Q] Ok, now `O=C(c1ccc2ncc(-c3nc(NC4CC4)ncc3F)n2c1)N1CCOCC1`
[A] 1930 nM

[Q] Ok, now `O=C(NCCCNc1cc(-c2cn(-c3ccccc3)nc2-c2cccc(O)c2)ccn1)c1ccccc1`
[A] 1700 nM

###

# GI50 per entry for COLO 205 colon

Some entries whose results are on file:
MOLECULE: O=C(Nc1ccc(Cl)cc1)c1ccc(NC2=C(Cl)C(=O)N(Cc3ccccc3)C2=O)cc1
RESULT VALUE: 30.3 µM
//
MOLECULE: COc1ccccc1NC(=O)n1nc(N)c2ccccc21
RESULT VALUE: > 100 µM
//
MOLECULE: CC(=O)O[C@H]1CC[C@@]2(C)C(=CC[C@H]3[C@@H]4C/C(=C\c5cccc(OCCN6CCOCC6)c5)[C@H](OC(C)=O)[C@@]4(C)CC[C@@H]32)C1
RESULT VALUE: 6.46 µM
//
MOLECULE: C#CC1(O)C(COP(=O)(O)OC2CC(n3cc(F)c(=O)[nH]c3=O)OC2CO)OC(n2ccc(N)nc2=O)C1O (configuration not stated)
RESULT VALUE: < 0.01 µM
//
MOLECULE: CC/C=C\C[C@H](O)C/C=C1/C(=O)C=C[C@@H]1C/C=C\CCCC(=O)N(C)C
RESULT VALUE: 1.45 µM
//
MOLECULE: CCCCCCCCCCN(CCCCCCCCCC)CC(=O)c1ccc2cc(Br)c3ccccc3c2c1
RESULT VALUE: 1.66 µM

[Q] What does the record list as GI50 for `N#Cc1cnc2cc(OC[C@@H](O)CO)c(NC(=O)CC3CSSC3)cc2c1Nc1ccc(OCc2cccc(F)c2)c(Cl)c1` ?
[A] 0.813 µM

[Q] Ok, now `NC(=O)c1cc(Br)cc(C2CCCCC2)c1O`
[A] 16.5 µM

[Q] Ok, now `CCOC(=O)c1[nH]c(-c2ccc(Cl)cc2)cc1-c1cccnc1`
[A] 0.398 µM

[Q] Ok, now `CC[C@@]1(O)C(=O)NCc2c1cc1n(c2=O)Cc2cc3c(N)cccc3nc2-1`
[A] 8.35 µM

[Q] Ok, now `COc1cc(/C=C\[N+](=O)[O-])ccc1OCc1ccccc1`
[A] 1.67 µM

[Q] Ok, now `CC1=C[C@H]2c3c(c(O)c(O)c4oc5ccccc5c(=O)c34)[C@H](c3cc(O)c(O)c4oc5ccccc5c(=O)c34)[C@H]2C(C)(C)C1`
[A] 2.8 µM

[Q] Ok, now `Cn1c(=O)c(Oc2ccccc2F)cc2cnc(NC3CCOCC3)nc21`
[A] > 25 µM

[Q] Ok, now `COc1ccc(/C=C/c2nc(NCCCN(C)C)c3ccccc3n2)cc1`
[A] 1.8 µM

[Q] Ok, now `Cc1sc(C)c(Cc2c(C)sc(C)c2CCl)c1CCl`
[A] > 100 µM

[Q] Ok, now `N=C(N=C(N)N)N1CCN(c2ccncc2)CC1`
[A] > 1000 µM

[Q] Ok, now `NNc1cccc(/C=C/c2ccccc2)cc1=O`
[A] 7.76 µM

###

# Tested on: HCT-15 colon
# PROTOCOL TEXT: NCI tumour cell line growth inhibition, 48 h
Catalogue of TGI values

Some entries whose results are on file:
COMPOUND: COC(=O)C(CCc1ccccc1I)C1=CCC2(CC1)OCCO2 (stereo not given)
RESULT VALUE: > 100 µM

COMPOUND: CCC(=O)C(C)C1=Nc2nnc(CCCCCCCc3nnc4n3C(=O)C(C(C)C(=O)CC)=N4)n2C1=O (stereo not given)
RESULT VALUE: > 100 µM

COMPOUND: C[C@]1(CO)[C@H]2CC[C@@]34C=C[C@@](CO)(CC[C@H]3[C@]2(C)CC[C@H]1O)C4
RESULT VALUE: > 100 µM

[Q] What does the record list as TGI for COc1ccccc1C1SCC(=O)N1c1ccc(-c2ccc(-n3c(-c4ccccc4)nc4ccccc4c3=O)cc2)cc1 (stereo not given) ?
[A] > 100 µM

[Q] Ok, now `N#Cc1c(-c2ccccc2)cc(-c2ccc(Nc3nc(Nc4ccc(Cl)cc4)nc(Nc4ccc(Cl)cc4)n3)cc2)nc1N`
[A] 5.1 µM

###

# Tested on: DU-145 prostate
# PROTOCOL TEXT: NCI tumour cell line growth inhibition, 48 h
MEASURE NAME: TGI

COMPOUND: O=C(NCCC(F)(F)C(F)(F)C(F)(F)C(F)(F)F)NC1OC(CO)C(O)C(O)C1O (stereo not given)
TGI: > 100 µM
//
COMPOUND: CN1C(=S)C(c2ccccc2)Sc2ccccc21 (stereo not given)
TGI: > 100 µM
//
COMPOUND: CN1CCCN(C)C1c1cc([N+](=O)[O-])ccc1O
TGI: > 100 µM
//
COMPOUND: COc1cc(/C=C\[N+](=O)[O-])ccc1OCc1ccccc1
TGI: 3.52 µM
//
COMPOUND: COc1cc(OC)c2c(O)c3c(cc2c1)CC(C)(C)CC3=O
TGI: > 100 µM
//
COMPOUND: NC(=Nc1ccc(O)cc1)S(=O)(=O)O
TGI: > 100 µM
//
COMPOUND: CC(C)(C)NCc1cc(C(C)(C)C)cc(-c2ccc(Cl)cc2)c1O
TGI: 24.7 µM
//
COMPOUND: O=C(c1ccc2ncc(-c3nc(NC4CC4)ncc3F)n2c1)N1CCOCC1
TGI: > 100 µM

[Q] What does the record list as TGI for `O=C(Nc1ccc(F)cc1)c1c(NC(=O)C(F)(F)F)sc2c1CCCCC2` ?
[A] 87.1 µM

[Q] Ok, now CC(C)CCC[C@@H](C)[C@H]1CCC2C3CC=C4C[C@@H](Oc5c6ccccc6nc6ccccc56)CCC4C3CCC21 (stereo not given in full)
[A] > 50 µM

###

# System: SNB-19 CNS
# PROTOCOL TEXT: NCI tumour cell line growth inhibition, 48 h
MEASURE NAME: TGI

Some entries whose results are on file:
COMPOUND: C(=N\OCc1ccccc1)/c1ncccc1C1OCCO1
SYSTEM NAME: SNB-19 CNS
TGI: > 100 µM

COMPOUND: Cn1c(=O)nc2n(-c3cccc(F)c3)c3ccccc3nc-2c1=O
SYSTEM NAME: SNB-19 CNS
TGI: 48.6 µM

COMPOUND: CCOC(=O)/C(=C\c1ccc(N(C)C)cc1)S(=O)(=O)C(F)(F)C(F)(F)C(F)(F)C(F)(F)F
SYSTEM NAME: SNB-19 CNS
TGI: > 100 µM

COMPOUND: Cn1ncc2c(N)nc(N3CCCCC3)nc21
SYSTEM NAME: SNB-19 CNS
TGI: > 100 µM

[Q] What does the record list as TGI for `O=C(Nc1nc2c(=O)[nH]cnc2s1)c1ccccc1` ?
[A] > 100 µM

###

# System: MDA-N
# PROTOCOL TEXT: NCI tumour cell line growth inhibition, 48 h
Catalogue of TGI values

COMPOUND: CC(C(=O)ON1C(=O)CCC1=O)c1ccc(C(=O)c2ccccc2)s1 (configuration not stated)
SYSTEM NAME: MDA-N
TGI: > 100 µM
//
COMPOUND: CN(C)c1nc(NC23CC4CC(CC(C4)C2)C3)nc(N(C)C)n1
SYSTEM NAME: MDA-N
TGI: > 45.9 µM
//
COMPOUND: O=C(/C=C/c1cccc(Br)c1)c1cccs1
SYSTEM NAME: MDA-N
TGI: 22.3 µM
//
COMPOUND: O=C(Nc1c[nH]c(=O)[nH]c1=O)C(Cl)Cl
SYSTEM NAME: MDA-N
TGI: > 100 µM

[Q] Form field - read-out: TGI; system: MDA-N; submitted item: `CN(C(=O)Cc1ccc(Cl)c(Cl)c1)[C@H]1CCCC[C@@H]1[N+]1(C)CCCC1`
[A] > 100 µM

[Q] Ok, now COc1cc(C2SCC(=O)N2c2ccc(-n3c(-c4ccccc4)nc4ccccc4c3=O)cc2)ccc1O (configuration not stated)
[A] > 100 µM

[Q] Ok, now O=C1NC(N/N=C\C(O)C(O)C(O)CO)=N/C1=C/c1ccc(Cl)cc1 (configuration not stated)
[A] > 100 µM

[Q] Ok, now `O=C(Nc1cccc(C(F)(F)F)c1)O/N=C(/Cl)CCl`
[A] > 100 µM

[Q] Ok, now `Cn1ccn2c3nc4ccccc4nc3c(=O)c(C#N)c12`
[A] > 100 µM

[Q] Ok, now O=C1CC(=O)c2c(O)cc(O)c(c2O)-c2c(ccc(O)c2O)C2=CC(=O)c3c(O)cc(O)c(c3O2)-c2c1ccc(O)c2O (tested in a mixture with another compound)
[A] > 50 µM
